Recorded clearance values for a group of molecules are listed next.
Assay: Plasma clearance in rat at 0.5 mg/kg
Type: ADME, organism-based
measureName: clearance (mL/min/kg)

{"columns": ["molecule", "measureName", "unitText", "numericValue"],
 "data": [
  ["C[C@H]1[C@H](F)C[C@@H](C(=O)NCc2cc(-c3ccc(C(F)(F)F)nc3)ncn2)N1S(=O)(=O)c1ccc(F)cc1", "clearance", "mL/min/kg", 10],
  ["C[C@H]1[C@H](F)C[C@@H](C(=O)NCc2cc(-c3cnc(C(F)(F)F)nc3)ncn2)N1S(=O)(=O)c1ccc(F)cc1", "clearance", "mL/min/kg", 6.4]
]}

###

Experiment: Kinetic solubility of the compound
Type: physicochemical
Conditions: read-out: Kinetic_solubility
Recorded solubility kinetic values for a group of molecules are listed next.
measureName: solubility kinetic

{"columns": ["molecule", "result"],
 "data": [
  ["C[C@H]1[C@H](F)C[C@@H](C(=O)NCc2cc(-c3cnc(C(F)(F)F)nc3)ncn2)N1S(=O)(=O)c1ccc(F)cc1", "98 µM"],
  ["C[C@H]1[C@H](F)C[C@@H](C(=O)NCc2cc(-c3cnc(C(F)(F)F)nc3)ncc2F)N1S(=O)(=O)c1ccc(F)cc1", "< 1 µM"],
  ["Cn1cnc2ncn(Cc3nn([C@H]4C[C@H](c5ccc(Cl)cc5)C4)c(=O)o3)c(=O)c21", "15 µM"],
  ["Cn1cnc2ncn(Cc3nc([C@@H]4CO[C@@H](c5ccc(Cl)cc5)C4)no3)c(=O)c21", "120 µM"]
]}

###

Recorded logD values for a group of compounds are listed next.
Assay: Lipophilicity, log D of the compound at pH 7.4
Format: physicochemical
Settings: buffer
measureName: logD

{"columns": ["molecule", "measureName", "numericValue"],
 "data": [
  ["Cn1cnc2ncn(Cc3nn(C[C@H](F)c4ccc(Cl)cc4)c(=O)o3)c(=O)c21", "logD", 1.2],
  ["Cn1cnc2ncn(Cc3nn([C@H]4C[C@H](c5ccc(Cl)cc5)C4)c(=O)o3)c(=O)c21", "logD", 2.4],
  ["Cn1cnc2ncn(Cc3nc([C@@H]4CO[C@@H](c5ccc(Cl)cc5)C4)no3)c(=O)c21", "logD", 1.8],
  ["Cn1cnc2ncn(Cc3nc([C@H]4[C@@H]5CN(c6cccc(Cl)c6)C[C@@H]54)no3)c(=O)c21", "logD", 2.9]
]}

###

Experiment: Protein binding in rat plasma incubated for 4 hrs
Type: ADME, cell-free
Conditions: read-out: PPB (converted)

{"columns": ["molecule", "fraction unbound at 4 h"],
 "data": [
  ["C[C@H]1[C@H](F)C[C@@H](C(=O)NCc2cc(-c3cnc(C(F)(F)F)nc3)ncn2)N1S(=O)(=O)c1ccc(F)cc1", 0.075],
  ["Cn1cnc2ncn(Cc3nn(C[C@H](F)c4ccc(Cl)cc4)c(=O)o3)c(=O)c21", 0.381],
  ["Cn1cnc2ncn(Cc3nc([C@H]4[C@@H]5CN(c6cccc(Cl)c6)C[C@@H]54)no3)c(=O)c21", 0.021],
  ["C[C@H]1[C@H](F)C[C@@H](C(=O)NCc2cc(-c3ccc(C(F)(F)F)nc3)ncn2)N1S(=O)(=O)c1ccc(F)cc1", 0.052],
  ["C[C@H]1[C@H](F)C[C@@H](C(=O)NCc2cc(-c3cnc(C(F)(F)F)nc3)ncc2F)N1S(=O)(=O)c1ccc(F)cc1", 0.028],
  ["C[C@H]1[C@H](F)C[C@@H](C(=O)NCc2cc(-c3cnc(C(F)(F)F)nc3)ncc2C(F)(F)F)N1S(=O)(=O)c1ccc(F)cc1", 0.012],
  ["Cn1cnc2ncn(Cc3nc([C@@H]4CO[C@@H](c5ccc(Cl)cc5)C4)no3)c(=O)c21", 0.192],
  ["Cn1cnc2ncn(Cc3nn([C@H]4C[C@H](c5ccc(Cl)cc5)C4)c(=O)o3)c(=O)c21", 0.081]
]}
